- test name: Liver microsome stability
- test parameters: mouse, pooled liver microsomes
reported endpoint: microsomal CLint (µL/min/mg)
The reply should contain only the number, in µL/min/mg.

Req: Provide one value: measured microsomal CLint of CC1(C)Cn2nc(-c3ccc4cc(OC5CC5)ccc4c3)c(C(N)=O)c2NC1O (stereo not shown)
Resp: 23.6

* * *

- test name: Mouse PK, Balb/c
- test parameters: Balb/c, mouse, plasma, po, 30 mg/kg
reported endpoint: Tmax (h)
The reply should contain only the number, in h.

Req: Provide one value: measured Tmax of CC1(C)Cn2nc(-c3ccc4cc(OC5CC5)ccc4c3)c(C(N)=O)c2NC1O (stereo not shown)
Resp: 1.5

* * *

- measurement target: CYP1A2 (Homo sapiens)
- Sequence (P05177 whole entry): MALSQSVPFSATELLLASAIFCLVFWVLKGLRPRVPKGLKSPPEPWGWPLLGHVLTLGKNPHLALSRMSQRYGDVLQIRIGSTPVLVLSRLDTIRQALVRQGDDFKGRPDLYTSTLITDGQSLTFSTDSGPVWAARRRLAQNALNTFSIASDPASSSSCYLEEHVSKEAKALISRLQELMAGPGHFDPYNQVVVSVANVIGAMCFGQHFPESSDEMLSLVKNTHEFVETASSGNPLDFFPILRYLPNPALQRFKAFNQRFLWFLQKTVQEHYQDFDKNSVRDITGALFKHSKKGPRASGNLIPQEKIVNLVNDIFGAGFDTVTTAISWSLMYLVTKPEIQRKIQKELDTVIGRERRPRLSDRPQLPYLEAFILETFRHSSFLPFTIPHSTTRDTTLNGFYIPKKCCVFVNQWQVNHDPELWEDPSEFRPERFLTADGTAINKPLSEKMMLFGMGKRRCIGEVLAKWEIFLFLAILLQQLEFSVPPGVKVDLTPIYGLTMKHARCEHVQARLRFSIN
- test name: in vitro
- test parameters: recombinant CYP1A2 supersomes
reported endpoint: CLint scaled (mL/min/kg)
The reply should contain only the number, in mL/min/kg.

Req: Report its CLint scaled with CYP1A2 (Homo sapiens) as the test system: CC1(C)Cn2nc(-c3ccc4cc(OC5CC5)ccc4c3)c(C(N)=O)c2NC1O (stereo not shown) [M2]
Resp: 2.78

* * *

- measurement target: UniProtKB P11712
- Sequence (P11712 whole entry): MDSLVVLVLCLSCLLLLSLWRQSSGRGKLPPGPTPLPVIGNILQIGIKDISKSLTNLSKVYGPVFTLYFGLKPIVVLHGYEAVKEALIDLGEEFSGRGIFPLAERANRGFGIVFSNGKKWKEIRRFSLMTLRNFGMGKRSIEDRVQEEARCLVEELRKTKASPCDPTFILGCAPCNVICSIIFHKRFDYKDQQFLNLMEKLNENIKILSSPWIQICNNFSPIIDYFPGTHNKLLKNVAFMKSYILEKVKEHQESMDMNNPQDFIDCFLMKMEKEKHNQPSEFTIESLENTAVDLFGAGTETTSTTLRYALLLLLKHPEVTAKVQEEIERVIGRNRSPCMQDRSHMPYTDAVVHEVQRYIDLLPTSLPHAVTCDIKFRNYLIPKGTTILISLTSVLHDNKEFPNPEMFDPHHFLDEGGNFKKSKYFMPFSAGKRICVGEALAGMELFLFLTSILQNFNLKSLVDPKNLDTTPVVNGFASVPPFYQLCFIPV
pIC50: −log10 of the molar value.
reported endpoint: pIC50

Req: Provide one value: measured pIC50 of CC1(C)Cn2nc(-c3ccc4cc(OC5CC5)ccc4c3)c(C(N)=O)c2NC1O (stereo not shown)
Resp: < 4.40

* * *

- test name: Hepatocyte stability
- test parameters: monkey, primary hepatocytes
reported endpoint: hepatocyte CLint (µL/min/1e6 cells)
The reply should contain only the number, in µL/min/1e6 cells.

Req: Provide one value: measured hepatocyte CLint of CC1(C)Cn2nc(-c3ccc4cc(OC5CC5)ccc4c3)c(C(N)=O)c2NC1O (stereo not shown)
Resp: 3.6

* * *

- measurement target: C. parvum CDPK1 (Cryptosporidium parvum)
- Sequence (A3FQ16 1-538): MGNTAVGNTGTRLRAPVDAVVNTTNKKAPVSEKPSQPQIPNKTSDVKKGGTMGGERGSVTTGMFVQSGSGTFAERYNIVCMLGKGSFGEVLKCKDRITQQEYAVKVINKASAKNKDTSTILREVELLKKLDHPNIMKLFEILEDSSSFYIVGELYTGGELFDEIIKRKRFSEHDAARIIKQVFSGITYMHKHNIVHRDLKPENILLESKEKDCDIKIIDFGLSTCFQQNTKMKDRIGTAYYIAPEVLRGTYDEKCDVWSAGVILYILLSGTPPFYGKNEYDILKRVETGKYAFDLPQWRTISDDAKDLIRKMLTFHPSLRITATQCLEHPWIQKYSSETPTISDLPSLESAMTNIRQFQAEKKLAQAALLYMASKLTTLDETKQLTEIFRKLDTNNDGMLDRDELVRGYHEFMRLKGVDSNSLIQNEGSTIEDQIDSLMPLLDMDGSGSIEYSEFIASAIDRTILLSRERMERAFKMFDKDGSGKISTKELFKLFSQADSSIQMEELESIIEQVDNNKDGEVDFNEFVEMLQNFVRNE
- test name: CpCDPK1 enzyme inhibition
- Format: biochemical
reported endpoint: IC50 (µM)
The reply should contain only the number, in µM.

Req: Report its IC50 with C. parvum CDPK1 (Cryptosporidium parvum) as the test system: CC1(C)Cn2nc(-c3ccc4cc(OC5CC5)ccc4c3)c(C(N)=O)c2NC1O (stereo not shown)
Resp: 0.0925

* * *

- test name: Liver microsome stability
- test parameters: mouse, pooled liver microsomes
reported endpoint: CLint scaled (mL/min/kg)
The reply should contain only the number, in mL/min/kg.

Req: Provide one value: measured CLint scaled of CC1(C)Cn2nc(-c3ccc4cc(OC5CC5)ccc4c3)c(C(N)=O)c2NC1O (stereo not shown) [M2]
Resp: 75

* * *

- test name: Mouse PK, Balb/c
- test parameters: Balb/c, mouse, plasma, iv, 1 mg/kg
reported endpoint: C0 (µM)
The reply should contain only the number, in µM.

Req: Provide one value: measured C0 of CC1(C)Cn2nc(-c3ccc4cc(OC5CC5)ccc4c3)c(C(N)=O)c2NC1O (stereo not shown)
Resp: 4.2

* * *

- test name: Hepatocyte stability
- test parameters: mouse, primary hepatocytes
reported endpoint: hepatocyte CLint (µL/min/1e6 cells)
The reply should contain only the number, in µL/min/1e6 cells.

Req: Provide one value: measured hepatocyte CLint of CC1(C)Cn2nc(-c3ccc4cc(OC5CC5)ccc4c3)c(C(N)=O)c2NC1O (stereo not shown)
Resp: 5.3

* * *

- measurement target: CYP2B6 (Homo sapiens, UniProt P20813)
- Sequence (P20813 1-491): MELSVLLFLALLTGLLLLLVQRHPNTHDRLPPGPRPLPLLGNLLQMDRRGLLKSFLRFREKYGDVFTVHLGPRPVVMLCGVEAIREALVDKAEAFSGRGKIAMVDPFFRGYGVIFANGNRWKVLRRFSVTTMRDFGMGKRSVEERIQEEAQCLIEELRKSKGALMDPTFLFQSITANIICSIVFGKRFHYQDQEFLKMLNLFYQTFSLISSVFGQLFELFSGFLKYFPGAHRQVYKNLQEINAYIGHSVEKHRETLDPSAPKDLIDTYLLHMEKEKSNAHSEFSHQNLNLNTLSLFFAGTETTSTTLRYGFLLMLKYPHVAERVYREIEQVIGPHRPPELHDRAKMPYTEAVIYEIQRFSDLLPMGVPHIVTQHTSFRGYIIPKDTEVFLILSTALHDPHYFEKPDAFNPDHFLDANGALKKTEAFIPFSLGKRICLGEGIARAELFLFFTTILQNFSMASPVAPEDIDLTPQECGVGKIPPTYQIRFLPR
- test name: in vitro
- test parameters: recombinant CYP2B6 supersomes
reported endpoint: CLint scaled (mL/min/kg)
The reply should contain only the number, in mL/min/kg.

Req: Report its CLint scaled with CYP2B6 (Homo sapiens, UniProt P20813) as the test system: CC1(C)Cn2nc(-c3ccc4cc(OC5CC5)ccc4c3)c(C(N)=O)c2NC1O (stereo not shown) [M2]
Resp: 0.35

* * *

- measurement target: CYP3A4 (Homo sapiens, UniProt P08684)
- Sequence (P08684 whole entry): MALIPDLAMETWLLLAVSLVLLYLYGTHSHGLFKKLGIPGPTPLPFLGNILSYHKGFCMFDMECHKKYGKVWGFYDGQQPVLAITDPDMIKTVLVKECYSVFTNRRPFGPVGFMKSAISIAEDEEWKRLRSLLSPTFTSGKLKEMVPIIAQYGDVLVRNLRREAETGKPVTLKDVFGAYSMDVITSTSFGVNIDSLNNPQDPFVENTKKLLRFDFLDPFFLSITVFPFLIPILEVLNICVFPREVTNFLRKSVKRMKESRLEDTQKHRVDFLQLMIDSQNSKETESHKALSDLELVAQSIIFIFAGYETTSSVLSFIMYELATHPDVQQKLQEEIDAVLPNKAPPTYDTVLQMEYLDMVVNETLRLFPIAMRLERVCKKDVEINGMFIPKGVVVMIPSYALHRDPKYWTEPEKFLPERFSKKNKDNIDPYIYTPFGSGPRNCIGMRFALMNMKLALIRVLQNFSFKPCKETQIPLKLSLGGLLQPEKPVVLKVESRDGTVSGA
- test name: in vitro
- test parameters: recombinant CYP3A4 supersomes
reported endpoint: half-life (min)
The reply should contain only the number, in min.

Req: Provide one value: measured half-life of CC1(C)Cn2nc(-c3ccc4cc(OC5CC5)ccc4c3)c(C(N)=O)c2NC1O (stereo not shown)
Resp: 49

* * *

pIC50: −log10 of the molar value.
reported endpoint: pIC50

Req: Report its pIC50 with CYP1A2 (Homo sapiens) as the test system: CC1(C)Cn2nc(-c3ccc4cc(OC5CC5)ccc4c3)c(C(N)=O)c2NC1O (stereo not shown) [M2]
Resp: < 4.40

* * *

Would you kindly list CC50 for each of these compounds?
- test name: HCT-8 host cell count (Calibr)
- test parameters: human, CC50, HCT-8 cells infected with Ch, Replicate 2

Req: Provide one value: measured CC50 of CC1(C)Cn2nc(-c3ccc4cc(OC5CC5)ccc4c3)c(C(N)=O)c2NC1O (stereo not drawn)
Resp: > 25 µM

Req: Provide one value: measured CC50 of CC(=O)Oc1ccccc1C(=O)Nc1ncc([N+](=O)[O-])s1 [Nitazoxanide]
Resp: > 30 µM

Req: Provide one value: measured CC50 of `CC(C)/N=c1\cc2n(-c3ccc(Cl)cc3)c3ccccc3nc-2cc1Nc1ccc(Cl)cc1`
Resp: > 25 µM
